biological target: T1, TNF-alpha (human, UniProt P01375 77-233); experiment: phage ELISA
T1 construct: also called TNFα; TNF-α
T1 sequence (P01375 77-233 limits assumed): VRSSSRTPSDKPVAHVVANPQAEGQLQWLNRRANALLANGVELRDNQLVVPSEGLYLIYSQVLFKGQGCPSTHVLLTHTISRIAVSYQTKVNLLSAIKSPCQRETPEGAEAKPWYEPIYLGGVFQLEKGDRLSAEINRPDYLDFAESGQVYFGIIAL
readout-kind: binding result

[[record]]
binder = "I030A10 (scFv) scFv: QVQLVQSGAEVKKPGSSVKVSCRASGGSFNHAISWVRQAPGRGLEWMGGILPMYGTANYAQKFQGRVTITADKLTNTVYMDLSRLRYEDTAVYYCARELGLSIVGATTGALDMWGRGTLVTVSSGGGGSGGGGSGGGGSAQAVLTQPSSVSGAPGQRVIISCTGSSSNIGPDYDVHWYQQLPGTAPKLLIYGNNNRPSGVPDRFSGSKSGTSASLAITGLQAEDEAHYYCQSYGSSLSGVVFGGGTKVTVLG"
recorded_result = "no binding"

[[record]]
binder = "I029F11 (scFv) scFv: QVQLVQSRAEVKRPGASVKVSCKASGYRFGSYGITWVRQAPGQGLEWMGWISTRYGDTKSAQKVEGRVTLTTDTSTSTAYMELRSLRSDDTAVYYCARDGSYDILTGYYIDNYMDVWGRGTLVTVSSGGGGSGGGGSGGGGSQSVLTQPPSASGTPGQRVTISCSGSSSNIGSNTVNWYQRLPGAAPQLLIYNNDQRPSGIPDRFSGSKSGTSGSLVISGLQSEDEADYYCASWDDSLNGRVFGGGTKLTVLG"
recorded_result = "no binding"

[[record]]
binder = "I065D08 (scFv) scFv: GVQLVQSGAEVKKPGASVKVSCKASGYTFTSYGISWVRQAPGQGLEWMGWISAYNGNTNYAQKLQGRVTMTTDTSTSTAYMELRSLRSDDTAVYYCARTPSSVYDLLTGYYHYFYSYMDVWGRGTMVTVSSGGGGSGGGGSGGGGSQSVLTQPASVSGSPGQSITISCTGTSSDVGGYNYVSWYQQHPGEAPKLMIYEGSKRPSGVSNRFSGSKSGNTASLTISGLQAEDEADYYCSSYTTRSTRVFGGGTKLTVLG"
recorded_result = "no binding"


Reference for the values: patent US20110293610A1
